# assayed target: T1, mouse programmed cell death protein 1 Fc fusion protein (mPD-1-Fc), mPD-1 C60S (aa 25-167) (Mus musculus, UniProt Q02242, stabilised)
# T1 construct: not cleaved; source: Expi293F, purified (Protein A, SEC; dimeric fraction); not shown: Fc (human), C-terminal, kept
# procedure details: SPR; Carterra LSA; Fab from the ammonium sulfate precipitate of the culture supernatant immobilised on a NiHC200M chip; hPD-1 (1-1024 nM) or mPD-1-Fc (4-1024 nM) as analyte, fourfold dilution series, no regeneration; HBS-EP pH 7.4, 25 °C; medians over the spots of a construct, KD = koff/kon
# condition context: one partner purified
Task for the reader: assign each of the following binders its reported kon.
Give the number; M⁻¹ s⁻¹ is assumed, so skip it.

So, toripalimab Fab L.S32A (Fab, V domains shown, as the heavy chain of Sm3; light chain of Sm3 with this change; numbers count from the chain's first residue; source: Brevibacillus, culture supernatant (ammonium sulfate precipitate); not shown: 6xHis, C-terminal, kept; 6xHN, C-terminal, kept) VH: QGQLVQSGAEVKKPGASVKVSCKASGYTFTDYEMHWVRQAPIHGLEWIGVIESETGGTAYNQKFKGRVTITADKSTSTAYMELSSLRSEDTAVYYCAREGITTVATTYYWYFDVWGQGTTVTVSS VL: DVVMTQSPLSLPVTLGQPASISCRSSQSIVHANGNTYLEWYLQKPGQSPQLLIYKVSNRFSGVPDRFSGSGSGTDFTLKISRVEAEDVGVYYCFQGSHVPLTFGQGTKLEIK ? Its kon was 41600

The recorded kon for toripalimab Fab L.N33Y (Fab, V domains shown, as the heavy chain of Sm3; light chain of Sm3 with this change; numbers count from the chain's first residue; source: Brevibacillus, culture supernatant (ammonium sulfate precipitate); not shown: 6xHis, C-terminal, kept; 6xHN, C-terminal, kept) VH: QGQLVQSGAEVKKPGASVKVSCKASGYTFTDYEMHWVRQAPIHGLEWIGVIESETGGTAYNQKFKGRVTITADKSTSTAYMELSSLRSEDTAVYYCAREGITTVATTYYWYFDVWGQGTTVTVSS VL: DVVMTQSPLSLPVTLGQPASISCRSSQSIVHSYGNTYLEWYLQKPGQSPQLLIYKVSNRFSGVPDRFSGSGSGTDFTLKISRVEAEDVGVYYCFQGSHVPLTFGQGTKLEIK is 50900

Lookup result for toripalimab Fab H.V114A (Fab, V domains shown, heavy chain of Sm3 with this change; numbers count from the chain's first residue; as the light chain of Sm3; source: Brevibacillus, culture supernatant (ammonium sulfate precipitate); not shown: 6xHis, C-terminal, kept; 6xHN, C-terminal, kept) VH: QGQLVQSGAEVKKPGASVKVSCKASGYTFTDYEMHWVRQAPIHGLEWIGVIESETGGTAYNQKFKGRVTITADKSTSTAYMELSSLRSEDTAVYYCAREGITTVATTYYWYFDAWGQGTTVTVSS VL: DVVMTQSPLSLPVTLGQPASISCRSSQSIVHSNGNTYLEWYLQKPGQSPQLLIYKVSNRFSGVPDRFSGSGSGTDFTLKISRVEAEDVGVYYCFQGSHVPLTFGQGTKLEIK ; measured kon: 38100
